target: NR2B-subtype NMDA receptors (Rattus norvegicus (Rat), UniProt P35439+Q00960); experiment: Radioligand binding assay (3H Ro 25-6981 competition, forebrain membranes); settings: 3H Ro 25-6981 (4 nM), read-out: NR2B Binding Ki
Sequence (Q00960 27-1482, other chains not shown): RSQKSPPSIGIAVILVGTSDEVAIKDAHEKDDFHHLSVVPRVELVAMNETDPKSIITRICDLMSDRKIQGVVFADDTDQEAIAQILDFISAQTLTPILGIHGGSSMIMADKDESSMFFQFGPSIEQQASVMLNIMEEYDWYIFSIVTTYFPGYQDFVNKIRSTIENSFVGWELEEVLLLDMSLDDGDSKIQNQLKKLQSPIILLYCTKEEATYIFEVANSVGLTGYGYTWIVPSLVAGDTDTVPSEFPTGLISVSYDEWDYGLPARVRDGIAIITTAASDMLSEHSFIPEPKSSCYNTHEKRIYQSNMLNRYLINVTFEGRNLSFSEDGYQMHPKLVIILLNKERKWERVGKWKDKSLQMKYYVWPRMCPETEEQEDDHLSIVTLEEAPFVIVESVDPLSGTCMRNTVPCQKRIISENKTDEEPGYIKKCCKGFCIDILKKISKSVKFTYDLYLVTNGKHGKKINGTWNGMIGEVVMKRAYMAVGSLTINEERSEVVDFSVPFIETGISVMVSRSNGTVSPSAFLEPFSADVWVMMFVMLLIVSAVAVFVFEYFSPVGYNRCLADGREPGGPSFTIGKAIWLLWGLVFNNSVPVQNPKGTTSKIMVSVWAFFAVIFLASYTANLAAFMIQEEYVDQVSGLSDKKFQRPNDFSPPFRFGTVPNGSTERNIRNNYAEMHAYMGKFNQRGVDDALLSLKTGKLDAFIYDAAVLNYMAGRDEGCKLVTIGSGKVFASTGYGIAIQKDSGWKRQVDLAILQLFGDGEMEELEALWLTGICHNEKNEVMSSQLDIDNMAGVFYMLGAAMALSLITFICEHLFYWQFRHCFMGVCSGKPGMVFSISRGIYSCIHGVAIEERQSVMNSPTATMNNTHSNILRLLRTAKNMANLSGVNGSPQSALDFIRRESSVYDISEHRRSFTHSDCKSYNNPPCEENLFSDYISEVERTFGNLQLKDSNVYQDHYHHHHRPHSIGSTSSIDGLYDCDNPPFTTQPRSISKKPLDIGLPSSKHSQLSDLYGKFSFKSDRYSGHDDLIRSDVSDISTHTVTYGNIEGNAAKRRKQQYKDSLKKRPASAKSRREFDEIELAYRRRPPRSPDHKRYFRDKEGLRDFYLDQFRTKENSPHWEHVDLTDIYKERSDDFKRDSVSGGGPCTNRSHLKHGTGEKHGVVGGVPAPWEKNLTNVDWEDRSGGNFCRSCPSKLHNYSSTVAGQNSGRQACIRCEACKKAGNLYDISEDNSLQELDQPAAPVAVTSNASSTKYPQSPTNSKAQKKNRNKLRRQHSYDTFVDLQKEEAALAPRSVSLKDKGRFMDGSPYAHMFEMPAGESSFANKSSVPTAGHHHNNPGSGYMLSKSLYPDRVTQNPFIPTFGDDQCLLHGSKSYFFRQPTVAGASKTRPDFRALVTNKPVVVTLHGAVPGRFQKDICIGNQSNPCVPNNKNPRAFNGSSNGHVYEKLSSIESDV
MEASUREMENT_LABEL: log10 of Ki (log10 of the value in nM)

>  <MOLECULE>
Cc1ccc(CN2CC[C@@H](N3CC(c4ccc(O)cc4)C3)C2=O)cc1F [Example 21a]

>  <log10 of Ki>
1.57

$$$$
>  <MOLECULE>
O=C1[C@@H](N2CC[C@@H](c3ccc(O)cc3)[C@H](F)C2)CCN1Cc1ccccc1

>  <log10 of Ki>
2.69

$$$$
>  <MOLECULE>
O=C1C(N2CCC(c3ccc(O)cc3)CC2)CCN1Cc1ccc(O)cc1 (stereo not shown)

>  <log10 of Ki>
0.67

$$$$
>  <MOLECULE>
O=C1[C@H](N2CC[C@H](c3ccc(O)cc3)[C@@H](F)C2)CCN1Cc1ccccc1

>  <log10 of Ki>
0.90

$$$$
>  <MOLECULE>
O=C1[C@H](N2CC[C@@H](c3ccc(O)cc3)[C@H](F)C2)CCN1Cc1ccccc1

>  <log10 of Ki>
0.94

$$$$
>  <MOLECULE>
O=C1C(N2CCC(c3ccc(O)cc3)C(F)(F)C2)CCN1Cc1ccc(C(F)(F)F)cc1 (stereo in doubt) [Example 99, P-2]

>  <log10 of Ki>
1.34

$$$$
>  <MOLECULE>
O=C1[C@H](N2CC[C@@H](c3ccc(O)cc3)[C@H](F)C2)CCN1Cc1ccc(C(F)F)cc1

>  <log10 of Ki>
0.54

$$$$
>  <MOLECULE>
O=C1[C@@H](N2CCC(c3ccc(O)cc3)CC2)CCN1Cc1ccc(F)c(F)c1

>  <log10 of Ki>
2.93

$$$$
>  <MOLECULE>
Cc1cccc(CN2CCC(N3CC[C@@H](c4ccc(O)cc4)[C@H](F)C3)C2=O)c1 (stereo partly shown)

>  <log10 of Ki>
2.04

$$$$
>  <MOLECULE>
O=C1C(N2CC[C@H](c3ccc(O)cc3)[C@@H](F)C2)CCN1Cc1ccc(F)c(Cl)c1 (stereo partly shown)

>  <log10 of Ki>
2.30

$$$$
>  <MOLECULE>
O=C1[C@H](N2CCC(c3ccc(O)cc3)CC2)CCN1Cc1ccccc1 [Example 13b]

>  <log10 of Ki>
0.20

$$$$
>  <MOLECULE>
Cc1ccc(CN2CCCC(N3CCC(c4ccc(O)cc4)CC3)C2=O)cc1F (stereo not shown)

>  <log10 of Ki>
2.48

$$$$
>  <MOLECULE>
O=C1[C@@H](N2CCC(c3ccc(O)cc3)C(F)(F)C2)CCN1Cc1ccc(C(F)(F)F)cc1 (single isomer, unassigned)

>  <log10 of Ki>
2.58

$$$$
>  <MOLECULE>
O=C1C(N2CCC(c3ccc(O)cc3)C(F)(F)C2)CCN1Cc1ccc(F)c(F)c1 (stereo not shown)

>  <log10 of Ki>
1.65

$$$$
>  <MOLECULE>
C[C@@H](c1ccc(F)cc1)N1CC[C@@H](N2CC[C@@H](c3ccc(O)cc3)[C@H](F)C2)C1=O

>  <log10 of Ki>
3.11

$$$$
>  <MOLECULE>
Cc1ccc(CN2CC[C@H](N3CC(c4ccc(O)cc4)C3)C2=O)cc1 [Example 28a]

>  <log10 of Ki>
2.62

$$$$

----------
molecular target: NR2B-subtype NMDA receptors (Rattus norvegicus (Rat), UniProt P35439+Q00960); experiment: Radioligand binding assay (3H Ro 25-6981 competition, forebrain membranes); conditions: 3H Ro 25-6981 (4 nM), read-out: NR2B Binding Ki
MEASUREMENT_LABEL: log10 of Ki (log10 of the value in nM)

>  <COMPOUND>
O=C1C(N2CCC(c3ccc(O)cc3)C(F)(F)C2)CCN1Cc1ccc(C(F)(F)F)cc1 (stereo not shown) [Example 110]

>  <log10 of Ki>
1.56

$$$$
>  <COMPOUND>
O=C1[C@H](N2CCC(c3ccc(O)cc3)C(F)(F)C2)CCN1Cc1ccc(Cl)c(F)c1 (single isomer, unassigned) [Example 107, P-2]

>  <log10 of Ki>
0.89

$$$$
>  <COMPOUND>
O=C1[C@@H](N2CCC(c3ccc(O)cc3)C(F)(F)C2)CCN1Cc1ccccc1 (stereo partly shown)

>  <log10 of Ki>
2.87

$$$$
>  <COMPOUND>
Cc1ccc(CN2CCC(N3CCC(c4ccc(O)cc4)CC3)C2=O)cc1C (stereo not shown)

>  <log10 of Ki>
1.49

$$$$
>  <COMPOUND>
O=C1[C@@H](N2CC[C@H](c3ccc(O)cc3)[C@@H](F)C2)CCN1Cc1ccc(Cl)c(F)c1

>  <log10 of Ki>
2.93

$$$$
>  <COMPOUND>
Cc1ccc(CN2CC[C@H](N3CC[C@@H](c4ccc(O)cc4)[C@H](F)C3)C2=O)cc1F

>  <log10 of Ki>
2.67

$$$$
>  <COMPOUND>
O=C1[C@H](N2CCC(c3ccc(O)cc3)C(F)(F)C2)CCN1c1ccc(OC(F)F)c(Cl)c1 (stereo partly shown)

>  <log10 of Ki>
1.04

$$$$

----------
Overview of recorded log10 of Ki for various compounds
target: NR2B-subtype NMDA receptors (Rattus norvegicus (Rat), UniProt P35439+Q00960); assay: Radioligand binding assay (3H Ro 25-6981 competition, forebrain membranes); conditions: 3H Ro 25-6981 (4 nM), read-out: NR2B Binding Ki
MEASUREMENT_LABEL: log10 of Ki (log10 of the value in nM)

>  <COMPOUND>
Cc1ccc(CN2CCC(N3CC(c4ccc(O)cc4)C3)C2=O)cc1 (stereo not drawn)

>  <log10 of Ki>
1.30

$$$$
>  <COMPOUND>
O=C1C(N2CCC(c3ccc(O)cc3)CC2)CCN1Cc1ccc(F)cc1 (racemic)

>  <log10 of Ki>
0.48

$$$$
>  <COMPOUND>
C[C@@H](c1ccccc1)N1CCC(N2CC[C@H](c3ccc(O)cc3)[C@@H](F)C2)C1=O (stereo partly drawn)

>  <log10 of Ki>
2.98

$$$$
>  <COMPOUND>
Cc1cccc(CN2CCC(N3CC[C@H](c4ccc(O)cc4)[C@@H](F)C3)C2=O)c1 (stereo partly drawn)

>  <log10 of Ki>
1.43

$$$$
>  <COMPOUND>
O=C1[C@@H](N2CC[C@@H](c3ccc(O)cc3)[C@H](F)C2)CCN1Cc1ccc(C(F)F)cc1

>  <log10 of Ki>
2.26

$$$$
>  <COMPOUND>
C[C@@H](c1ccccc1)N1CC[C@@H](N2CCC(c3ccc(O)cc3)CC2)C1=O [Example 33b]

>  <log10 of Ki>
1.64

$$$$
>  <COMPOUND>
O=C1[C@H](N2CCC(c3ccc(O)cc3)C(F)(F)C2)CCN1Cc1ccc(F)c(F)c1 (single isomer, unassigned)

>  <log10 of Ki>
1.18

$$$$
>  <COMPOUND>
O=C1[C@@H](N2CCC(c3ccc(O)cc3)C(F)(F)C2)CCN1Cc1ccc(Cl)cc1 (stereo partly drawn) [Example 106, P-1]

>  <log10 of Ki>
3.00

$$$$
>  <COMPOUND>
O=C1[C@H](N2CCC(c3ccc(O)cc3)C(F)(F)C2)CCN1Cc1ccc(Cl)cc1 (stereo partly drawn) [Example 106, P-2]

>  <log10 of Ki>
0.66

$$$$
>  <COMPOUND>
O=C1[C@H](N2CC[C@@H](c3ccc(O)cc3)[C@H](F)C2)CCN1c1ccc(OC(F)F)c(Cl)c1

>  <log10 of Ki>
1.00

$$$$
>  <COMPOUND>
O=C1C(N2CCCC(c3ccc(O)cc3)CC2)CCN1Cc1ccc(F)cc1 (stereo not drawn)

>  <log10 of Ki>
1.23

$$$$
>  <COMPOUND>
O=C1C(N2CCC(c3ccc(O)cc3)C(F)(F)C2)CCN1Cc1ccc(OC(F)F)cc1 (stereo not drawn) [Example 105]

>  <log10 of Ki>
2.26

$$$$
>  <COMPOUND>
O=C1[C@H](N2CC[C@H](c3ccc(O)cc3)[C@@H](F)C2)CCN1Cc1ccc(Cl)cc1

>  <log10 of Ki>
0.58

$$$$
>  <COMPOUND>
O=C1C(N2CCC(c3ccc(O)cc3)C(O)C2)CCN1Cc1ccc(F)cc1 (single isomer, unassigned) [Example 9d]

>  <log10 of Ki>
2.20

$$$$
>  <COMPOUND>
O=C1C(N2CCC(c3ccc(O)cc3)C(F)(F)C2)CCN1Cc1ccc(F)c(Cl)c1 (stereo not drawn) [Example 111]

>  <log10 of Ki>
2.77

$$$$
>  <COMPOUND>
O=C1C(N2CCC(c3ccc(O)cc3)C(F)(F)C2)CCN1Cc1ccc(C(F)(F)F)cc1 (single isomer, unassigned) [Example 53, P-1]

>  <log10 of Ki>
3.04

$$$$
>  <COMPOUND>
O=C1C(N2CCC(c3ccc(O)cc3)C(F)(F)C2)CCN1c1ccc(OC(F)F)c(Cl)c1 (stereo not drawn)

>  <log10 of Ki>
1.89

$$$$
>  <COMPOUND>
O=C1C(N2CCC(c3ccc(O)cc3)C(F)(F)C2)CCN1Cc1ccc(C(F)(F)F)cc1 (single isomer, unassigned) [Example 53, P-2]

>  <log10 of Ki>
0.76

$$$$
>  <COMPOUND>
O=C1[C@@H](N2CC[C@@H](c3ccc(O)cc3)[C@H](F)C2)CCN1Cc1ccc(Cl)cc1

>  <log10 of Ki>
2.69

$$$$
>  <COMPOUND>
O=C1C(N2CC[C@H](c3ccc(O)cc3)[C@@H](F)C2)CCN1Cc1ccc(Cl)c(Cl)c1 (stereo partly drawn)

>  <log10 of Ki>
1.89

$$$$
>  <COMPOUND>
O=C1C(N2CCC(c3ccc(O)cc3)C(F)(F)C2)CCN1Cc1ccccc1 (single isomer, unassigned) [Example 91, P-1]

>  <log10 of Ki>
1.88

$$$$
>  <COMPOUND>
O=C1[C@H](N2CC[C@@H](c3ccc(O)cc3)[C@H](F)C2)CCN1Cc1ccc(F)cc1

>  <log10 of Ki>
1.04

$$$$
>  <COMPOUND>
O=C1[C@@H](N2CC[C@H](c3ccc(O)cc3)[C@@H](F)C2)CCN1Cc1ccc(F)cc1

>  <log10 of Ki>
3.23

$$$$
>  <COMPOUND>
O=C1C(N2CCN(c3ccc(O)cc3)CC2)CCN1Cc1ccc(F)cc1 (stereo not drawn)

>  <log10 of Ki>
1.52

$$$$
>  <COMPOUND>
O=C1C(N2CCC(c3ccc(O)cc3)CC2)CCN1Cc1ccc(Cl)cc1 (racemic)

>  <log10 of Ki>
0.20

$$$$
>  <COMPOUND>
O=C1[C@H](N2CCC(c3ccc(O)cc3)CC2)CCN1Cc1ccc(Cl)cc1 [Example 18b]

>  <log10 of Ki>
0.18

$$$$
>  <COMPOUND>
O=C1C(N2CC[C@@H](c3ccc(O)cc3)[C@H](F)C2)CCN1Cc1ccc(F)c(Cl)c1 (stereo partly drawn)

>  <log10 of Ki>
2.52

$$$$
>  <COMPOUND>
Cc1ccc(CN2CCCC(N3CCC(c4ccc(O)cc4)CC3)C2=O)cc1 (stereo not drawn)

>  <log10 of Ki>
2.18

$$$$
